- Test system: SK-OV-3 cells (ovarian carcinoma)
- Assay Name: MTS cytotoxicity assay, SK-OV-3
- Format: cell-based, human
- Measurement Setup: Homo sapiens, SK-OV-3, 48 h, read-out: IC50 (mean ± SD)
- Description: Human lung cancer (A549), human normal lung epithelial cell line (BEAS-2B), human stomach cancer (SGC-7901) and human ovarian cancer (SK-OV-3) were purchased from ATCC, whereas cisplatin-resistant SK-OV-3 cells (SK-OV-3/DDP) were kindly provided by Chinese Academy of Medical Sciences (Beijing, China). […] Cytotoxicity was determined by performing MTS assay. […] Cell viability was measured by reading the absorbance at a wavelength of 490 nm. […]
Measurement Name: IC50

INSERT INTO results (molecule, measurement_name, endpoint_result) VALUES
  ('O=C(O)C(Cl)Cl [DCA, Dichloroacetate]', 'IC50', '> 200 µM');

###

- Test system: cisplatin-resistant SK-OV-3 cells (SK-OV-3/DDP)
- Assay Name: MTS cytotoxicity assay, cisplatin-resistant SK-OV-3/DDP
- Assay type: cell-based, human
- Measurement Setup: SK-OV-3/DDP cisplatin-resistant, MTS, t = 48 h, n = 3; read-out: IC50 (mean ± SD)
Measurement Name: IC50 (µM)

INSERT INTO measurements (compound, target_under_test, measurement_name, endpoint_result) VALUES
  ('N.N.[Cl][Pt][Cl] [Cisplatin, cisplatin, reference compound]', 'cisplatin-resistant SK-OV-3 cells (SK-OV-3/DDP)', 'IC50', 19.2),
  ('N.NC1CCCC1.O=C(OC1CC2(C1)C(=O)[O][Pt][O]C2=O)C(Cl)Cl [Complex 1a]', 'cisplatin-resistant SK-OV-3 cells (SK-OV-3/DDP)', 'IC50', 18.1),
  ('N.NC1CCCCC1.O=C(OC1CC2(C1)C(=O)[O][Pt][O]C2=O)C(Cl)Cl [Complex 2a]', 'cisplatin-resistant SK-OV-3 cells (SK-OV-3/DDP)', 'IC50', 11.1);

###

- Test system: SGC-7901 cells (gastric carcinoma)
- Assay Name: MTS cytotoxicity assay, SGC-7901
- Assay type: cell-based, human
- Measurement Setup: SGC-7901, MTS, t = 48 h, n = 3; read-out: IC50 (mean ± SD)
Listing: IC50 of selected compounds
Measurement Name: IC50 (µM)

INSERT INTO measurements (compound, endpoint_result) VALUES
  ('N.N.O=C([O-])C1(C(=O)[O-])CCC1.[Pt+2] [Carboplatin, carboplatin, reference compound]', 127),
  ('N.NC1CCCC1.O=C(OC1CC2(C1)C(=O)[O][Pt][O]C2=O)C(Cl)Cl', 21.9),
  ('N.NC1CCCC1.O=C1[O][Pt][O]C(=O)C12CC(O)C2', 56.2),
  ('N.NC1CCCCC1.O=C1[O][Pt][O]C(=O)C12CC(O)C2', 69.5),
  ('N.NC1CCCCC1.O=C(OC1CC2(C1)C(=O)[O][Pt][O]C2=O)C(Cl)Cl', 16.7),
  ('N.N.[Cl][Pt][Cl] [Cisplatin, cisplatin, reference compound]', 13.6);
